// provenance: patent US9079861B2

measured-on: human 11β-HSD1 (Homo sapiens)
Construct: expressed in transfected cells; host or cells: CHO cells (microsomes)
assay-details: Biological Test Example 1: inhibition of microsomal preparation of 11β-HSD1 (SPA)
Format: biochemical
protocol-conditions: microsomes from CHO cells overexpressing human 11β-HSD1; read-out: IC50 Range
Protocol: The inhibition of microsomal preparation of 11β-HSD1 by compounds of the invention was measured essentially as previously described (K. Solly, S. S. Mundt, H. J. Zokian, G. J. Ding, A. Hermanowski-Vosatka, B. Strulovici, and W. Zheng, High-Throughput Screening of 11-Beta-Hydroxysteroid Dehydrogenase Type 1 in Scintillation Proximity Assay Format. Assay Drug Dev Technol 3 (2005) 377-384). […]
Each entry below carries its recorded IC50.

compound | IC50
C[C@@H](c1ccc(-c2ccn(C)c(=O)c2)cc1)N1CC[C@](CC(C)(C)O)(c2ccccc2)NC1=O [Example 21] | < 100 nM
C[C@@H](c1ccc(-c2ccc(F)cc2)cc1)N1CC[C@](CC(O)CO)(c2ccc(F)cc2)NC1=O (single isomer, unassigned) [Example 9 Isomer 1] | < 100 nM
C[C@@H](c1ccc(Br)cc1)N1CC[C@](CCCO)(c2ccc(F)cc2)NC1=O [Example 18] | < 100 nM

----------
measured-on: human 11β-HSD1 (Homo sapiens)
Construct: expressed in transfected cells; host or cells: CHO cells (microsomes)
assay-details: Biological Test Example 1: inhibition of microsomal preparation of 11β-HSD1 (SPA)
Assay type: biochemical
protocol-conditions: microsomes from CHO cells overexpressing human 11β-HSD1; read-out: IC50 Range
Reported IC50 is given for each of the following molecules.

molecule | measured-on | IC50
C[C@@H](c1ccc(-c2ccc(F)cc2F)cc1)N1CC[C@@](CCCO)(c2ccc(F)cc2)NC1=O (single isomer, unassigned) [Example 7 Isomer 2] | human 11β-HSD1 (Homo sapiens) | < 100 nM
C[C@@H](c1ccc(-c2ccc(F)cc2)cc1)N1CC[C@@](CCCO)(c2ccc(F)cc2)NC1=O (single isomer, unassigned) [Example 10 Isomer 2] | human 11β-HSD1 (Homo sapiens) | < 100 nM
C[C@@H](c1ccc(-c2ccc(F)cc2)cc1)N1CC[C@](CCCO)(c2ccccc2)NC1=O (single isomer, unassigned) [Example 14 Isomer 1] | human 11β-HSD1 (Homo sapiens) | < 100 nM

----------
measured-on: human 11β-HSD1 (Homo sapiens, UniProt P28845)
Construct: expressed in transfected cells; host or cells: CHO cells (microsomes)
Sequence (P28845 whole entry): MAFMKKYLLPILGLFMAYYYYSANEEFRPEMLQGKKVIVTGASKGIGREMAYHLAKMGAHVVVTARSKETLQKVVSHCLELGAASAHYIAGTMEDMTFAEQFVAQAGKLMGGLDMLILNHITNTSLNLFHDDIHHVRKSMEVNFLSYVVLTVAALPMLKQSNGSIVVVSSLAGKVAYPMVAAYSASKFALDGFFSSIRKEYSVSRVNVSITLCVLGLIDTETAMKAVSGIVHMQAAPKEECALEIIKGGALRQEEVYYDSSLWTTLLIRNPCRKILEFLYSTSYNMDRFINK
assay-details: Biological Test Example 1: inhibition of microsomal preparation of 11β-HSD1 (SPA)
Format: biochemical
protocol-conditions: at 100 nM; 0.1 µM
Property: Average % inhibition at 100 nM; scope: individual compounds

compound | Average % inhibition at 100 nM (%)
C[C@@H](c1ccc(-c2ccc(F)cc2)cc1)N1CC[C@@](CC(O)CO)(c2ccc(F)cc2)NC1=O (single isomer, unassigned) [Example 9 Isomer 3] | 38.5
C[C@@H](c1ccc(-c2ccc(F)cc2)cc1)N1CC[C@](CC(O)CO)(c2ccc(F)cc2)NC1=O (single isomer, unassigned) [Example 9 Isomer 2] | 93.5
C[C@@H](c1ccc(-c2ccc(F)cc2F)cc1)N1CC[C@](CC(O)CO)(c2ccc(F)cc2)NC1=O (single isomer, unassigned) [Example 8 Isomer 2] | 94.8
C[C@@H](c1ccc(-c2ccc(F)cc2)cc1)N1CC[C@@](CC(O)CO)(c2ccc(F)cc2)NC1=O (single isomer, unassigned) [Example 9 Isomer 4] | 16.5
